IC50 values for the compounds below.
target: TRKA (Homo sapiens (Human), UniProt P04629); assay: Isolated TRK enzyme assay (HTRF KinEASE-TK), PV3144 TrkA enzyme assay; conditions: arithmetic mean where more than one reading
Sequence (P04629 441-796): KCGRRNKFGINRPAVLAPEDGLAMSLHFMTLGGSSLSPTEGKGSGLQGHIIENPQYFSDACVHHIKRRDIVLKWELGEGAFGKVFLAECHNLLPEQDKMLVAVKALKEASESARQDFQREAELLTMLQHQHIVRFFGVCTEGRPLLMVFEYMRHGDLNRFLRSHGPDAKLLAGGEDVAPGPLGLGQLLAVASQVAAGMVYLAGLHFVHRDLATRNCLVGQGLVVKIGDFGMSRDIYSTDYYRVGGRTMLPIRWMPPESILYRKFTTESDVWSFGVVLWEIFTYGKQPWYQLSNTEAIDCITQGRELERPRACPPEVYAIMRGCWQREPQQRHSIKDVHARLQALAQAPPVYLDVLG
Write the numeric value and follow it with the unit.

Check out these entries, answers already filled in.
{"columns": ["Compound", "IC50"],
 "data": [
  ["Cc1noc(C)c1CC(=O)Nc1cc(C(=O)c2cn(C(C)C)c3ccncc23)ccn1 [Example 160]", "8990 nM"],
  ["CC(C)(CO)n1cc(C(=O)c2cncc(NC(=O)Cn3cc(C(F)(F)F)nn3)c2)c2cncc(F)c21 [Example 94]", "20 nM"],
  ["CC(C)n1ncc(CC(=O)Nc2cncc(C(=O)c3cn(C(C)CO)c4ccncc34)c2)c1C(F)(F)F (single isomer, unassigned) [Example 71]", "149 nM"]
]}

Request: Could you tell me which IC50 is on file for CC(C)(CO)n1cc(C(=O)c2cncc(NC(=O)Cn3ccc(C(F)(F)F)n3)c2)c2cnccc21 [Example 236] ?
Response: 43.1 nM

Request: Could you tell me which IC50 is on file for CC(C)n1cc(C(=O)c2ccnc(NC(=O)Cc3ccc(C#N)cc3)c2)c2cnccc21 [Example 183] ?
Response: 17.7 nM

Request: Could you tell me which IC50 is on file for CC(CO)n1cc(C(=O)c2cncc(NC(=O)Cc3ccc(F)cn3)c2)c2cncc(F)c21 (single isomer, unassigned) [Example 218] ?
Response: 425 nM

Request: Could you tell me which IC50 is on file for CC(C)(CO)n1cc(C(=O)c2cncc(NC(=O)Cc3cccc(C(F)(F)F)c3)c2)c2cnccc21 [Example 235] ?
Response: 2.87 nM

Request: Could you tell me which IC50 is on file for CC(CO)n1cc(C(=O)c2cncc(NC(=O)Cc3ccc(Cl)cc3)c2)c2cncc(F)c21 (single isomer, unassigned) [Example 206] ?
Response: 20.7 nM

Request: Could you tell me which IC50 is on file for CC(C)c1ccnn1CC(=O)Nc1cc(C(=O)c2cn(C(C)C)c3ccncc23)ccn1 [Example 111] ?
Response: 96.8 nM

Request: Could you tell me which IC50 is on file for CC(C)n1cc(C(=O)c2cc(NC(=O)Cn3ccc(C(F)(F)F)n3)ccn2)c2cnccc21 [Example 27] ?
Response: 89.7 nM

Request: Could you tell me which IC50 is on file for Cc1ccnn1CC(=O)Nc1cc(C(=O)c2cn(C(C)C)c3ccncc23)ccn1 [Example 169] ?
Response: 83.6 nM

Request: Could you tell me which IC50 is on file for CC(C)n1cc(C(=O)c2ccnc(NC(=O)Cn3cc(C(F)(F)F)nn3)c2)c2cnccc21 [Example 163] ?
Response: 10.7 nM

Request: Could you tell me which IC50 is on file for O=C(Cc1ccc(F)cc1)Nc1cc(C(=O)c2cn(C3COC3)c3ccncc23)ccn1 [Example 204] ?
Response: 227 nM

Request: Could you tell me which IC50 is on file for CC(C)n1cc(C(=O)c2ccnc(NC(=O)Cc3nnnn3C)c2)c2cnccc21 [Example 192] ?
Response: 9800 nM

Request: Could you tell me which IC50 is on file for O=C(Cc1ccc(Cl)c(Cl)c1)Nc1cc(C(=O)c2cn(CCO)c3ccncc23)ccn1 [Example 144] ?
Response: 22.2 nM

---

molecular target: TRKA (Homo sapiens (Human)); test: Isolated TRK enzyme assay (HTRF KinEASE-TK), PV3144 TrkA enzyme assay; details: arithmetic mean where more than one reading
pIC50: −log10 of the molar value.
Binary call on pIC50: MET from 7 upward, NOT MET beneath that.

{"columns": ["Compound", "Assigned Category"],
 "data": [
  ["CC(C)n1ncc(CC(=O)Nc2cc(C(=O)c3cn(C4COC4)c4ccncc34)ccn2)c1C(F)(F)F", "NOT MET"],
  ["Cc1nc(C)n(CC(=O)Nc2cc(C(=O)c3cn(C(C)C)c4ccncc34)ccn2)n1", "NOT MET"],
  ["CC(CO)n1cc(C(=O)c2cc(NC(=O)Cc3cccc(C(F)(F)F)c3)ccn2)c2cnccc21 (single isomer, unassigned) [Example 229]", "NOT MET"],
  ["CC(CO)n1cc(C(=O)c2cncc(NC(=O)Cc3ccc(F)cn3)c2)c2cnccc21 (single isomer, unassigned) [Example 74]", "NOT MET"],
  ["CC(C)n1cc(C(=O)c2cncc(NC(=O)Cc3ccc(Cl)cn3)c2)c2cnccc21", "MET"],
  ["CC(C)n1cc(C(=O)c2cncc(NC(=O)Cn3cccn3)c2)c2cnccc21", "NOT MET"],
  ["CC(C)n1ncc(CC(=O)Nc2cc(C(=O)c3cn(C(C)C)c4ccncc34)ccn2)c1C(F)(F)F", "MET"],
  ["CC(C)(CO)n1cc(C(=O)c2cncc(NC(=O)Cc3ccc(F)cn3)c2)c2cnccc21", "MET"]
]}

Request: Please tell me: is the compound CC(CO)n1cc(C(=O)c2cc(NC(=O)Cc3cccc(C(F)(F)F)c3)ccn2)c2cnccc21 (single isomer, unassigned) [Example 18] at or over 7 in terms of pIC50?
Response: MET

Request: Please tell me: is the compound `CC(C)c1cn(CC(=O)Nc2cncc(C(=O)c3cn(C(C)C)c4ccncc34)c2)nn1` at or over 7 in terms of pIC50?
Response: MET

Request: Please tell me: is the compound `CC(C)(CO)n1cc(C(=O)c2cncc(NC(=O)Cc3ccc(Cl)cn3)c2)c2cnccc21` at or over 7 in terms of pIC50?
Response: MET

Request: Please tell me: is the compound `CC(C)(CO)n1cc(C(=O)c2cncc(NC(=O)Cc3cccc(C(F)(F)F)c3)c2)c2cncc(F)c21` at or over 7 in terms of pIC50?
Response: MET

Request: Please tell me: is the compound `CC(C)n1cc(C(=O)c2cncc(NC(=O)Cc3cccc(CC(C)(C)O)c3)c2)c2cnccc21` at or over 7 in terms of pIC50?
Response: MET

Request: Please tell me: is the compound `CC(C)n1cc(C(=O)c2ccnc(NC(=O)Cc3ccc(C#N)cn3)c2)c2cnccc21` at or over 7 in terms of pIC50?
Response: MET

Request: Please tell me: is the compound `O=C(Nc1cc(C(=O)c2cn(C3COC3)c3ccncc23)ccn1)c1cccc(OC(F)(F)F)c1` at or over 7 in terms of pIC50?
Response: MET

Request: Please tell me: is the compound `CC(C)n1cc(C(=O)c2ccnc(NC(=O)Cc3ccc(Cl)cn3)c2)c2cnccc21` at or over 7 in terms of pIC50?
Response: MET

Request: Please tell me: is the compound `Cc1ccn(CC(=O)Nc2cc(C(=O)c3cn(CCO)c4ccncc34)ccn2)n1` at or over 7 in terms of pIC50?
Response: NOT MET

Request: Please tell me: is the compound `CC(C)n1cc(C(=O)c2cncc(NC(=O)Cc3nc(C4CC4)oc3C3CC3)c2)c2cnccc21` at or over 7 in terms of pIC50?
Response: MET

---

Molecular target: TRKA (Homo sapiens (Human), UniProt P04629)
Test: Isolated TRK enzyme assay (HTRF KinEASE-TK), PV3144 TrkA enzyme assay
Conditions: arithmetic mean where more than one reading
Method: Isolated TRK Enzyme assays use the HTRF KinEASE-TK kit (Cisbio Cat#62TK0PEJ) with recombinant His-tagged cytoplasmic domains of each TRK receptor sourced from Invitrogen (see table below). […] After the Detection Reagent addition, plates are covered and incubated at room temperature for 60 minutes. HTRF signal is read using an Envision reader, measured as a ratio of emissions at two different wavelengths, 620 nm and 665 nm. […] Where more than one reading was taken, the arithmetic mean is presented.
pIC50 values for the compounds below.
Note: pIC50 values are expressed as the negative base-10 logarithm of concentration in M.

Check out these entries, answers already filled in.
{"columns": ["Compound", "Value Observed"],
 "data": [
  ["Cc1nn(C)cc1CC(=O)Nc1ccnc(C(=O)c2cn(C(C)C)c3ccncc23)c1", 5.19],
  ["CC(C)n1cc(C(=O)c2cncc(NC(=O)Cc3ccccc3Cl)c2)c2cnccc21", 5.63],
  ["CC(CO)n1cc(C(=O)c2cncc(NC(=O)Cc3ccc(Cl)cn3)c2)c2cnccc21 (single isomer, unassigned) [Example 66]", 7.42]
]}

Request: Could you tell me which pIC50 is on file for `CC(C)n1cc(C(=O)c2cncc(NC(=O)Cc3cnccn3)c2)c2cnccc21` ?
Response: 5.36

Request: Could you tell me which pIC50 is on file for `CC(C)n1cc(C(=O)c2ccnc(NC(=O)Cc3cscn3)c2)c2cnccc21` ?
Response: 6.27

Request: Could you tell me which pIC50 is on file for `O=C(Cc1ccc(F)cc1)Nc1cc(C(=O)c2cn(CCO)c3ccncc23)ccn1` ?
Response: 6.37

Request: Could you tell me which pIC50 is on file for `COCc1nc(CC(=O)Nc2cc(C(=O)c3cn(C(C)C)c4ccncc34)ccn2)c(C2CC2)o1` ?
Response: 6.45
